# Test system: tRNA 2'-phosphotransferase TPT1 (Candida albicans SC5314)
# Experiment Description: tRNA 2'-phosphotransferase blockers, C. albicans – biochemical, fluorescence polarization, primary screen (AID 1962);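 further: plate controls were DMSO alone for no effect and ferristatin control at 100 nM for full effect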
# Test Context: recombinant caTPT1, FP RNA substrate dephosphorylation; at 5 µM; hits give high values
The whole screen tested about 300,000 compounds, of which about 2,500 (0.83%) were called active. The full list was thinned out, with actives kept by preference.
Each entry below lists one item and its recorded inhibition value.

{"Molecule": "COc1ccc(Cc2nc(-c3ccccn3)no2)cc1OC", "System Name": "tRNA 2'-phosphotransferase TPT1 (Candida albicans SC5314)", "inhibition / %": 48.4}
{"Molecule": "CCOc1ccc(NC(=O)c2ccc(NC(=O)C3CCCO3)cc2)cc1 (stereo not given)", "System Name": "tRNA 2'-phosphotransferase TPT1 (Candida albicans SC5314)", "inhibition / %": 1.62}
{"Molecule": "O=C(O)c1ccc(/C=C2\\SC(=S)N(NC(=O)c3ccc(Br)cc3)C2=O)cc1", "System Name": "tRNA 2'-phosphotransferase TPT1 (Candida albicans SC5314)", "inhibition / %": 5.29}
{"Molecule": "CC(C)(C)c1ccc(/C=C2\\Oc3c(ccc(O)c3CN3CCN(CCO)CC3)C2=O)cc1", "System Name": "tRNA 2'-phosphotransferase TPT1 (Candida albicans SC5314)", "inhibition / %": 33.2}
{"Molecule": "CCOC(=O)c1oc2c(CN3CCN(CCO)CC3)c(O)c(CC)cc2c(=O)c1-c1nc2ccccc2s1", "System Name": "tRNA 2'-phosphotransferase TPT1 (Candida albicans SC5314)", "inhibition / %": -0.54}
{"Molecule": "COc1ccc(CCNS(=O)(=O)c2cccc3cccnc23)cc1OC", "System Name": "tRNA 2'-phosphotransferase TPT1 (Candida albicans SC5314)", "inhibition / %": 1.77}
{"Molecule": "CN1CCN(Cc2c(O)ccc3c2oc(=O)c2ccccc23)CC1", "System Name": "tRNA 2'-phosphotransferase TPT1 (Candida albicans SC5314)", "inhibition / %": -1.97}
{"Molecule": "CCOc1cc(-c2noc(CCCC(=O)NC3CCCCC3)n2)ccc1OC", "System Name": "tRNA 2'-phosphotransferase TPT1 (Candida albicans SC5314)", "inhibition / %": 3.27}
{"Molecule": "Cn1cccc1/C=C1\\SC(=O)N(CC(=O)Nc2ccc(F)cc2)C1=O", "System Name": "tRNA 2'-phosphotransferase TPT1 (Candida albicans SC5314)", "inhibition / %": 1.77}
{"Molecule": "CCOC(=O)[C@H]1[C@H]2COc3ccc(OC)cc3[C@@H]2N2C(=O)c3ccc(F)cc3NC(=O)[C@@]12C", "System Name": "tRNA 2'-phosphotransferase TPT1 (Candida albicans SC5314)", "inhibition / %": 0.85}
